# System: PC3 (p53−) (Prostate Adenocarcinoma)
# TEST: Cell viability analysis, prostate cancer PC3
# Assay type: cell-based, human
# CONDITION_NOTES: Homo sapiens, 72 h, read-out: cell viability (survival rate), PC3, drug 10 μM, 72 hours, WST-1, OD450 nm
Lab note: compare viability at 10 µM with 60%, writing MET if less and NOT MET if equal or more.

Consider CC(=O)N1CCN(c2ccc(OCC3COC(Cn4ccnc4)(c4ccc(Cl)cc4Cl)O3)cc2)CC1 (stereo not shown) . Does its viability at 10 µM lie strictly below 60%?
NOT MET

Field: below-cutoff. Rule: recorded viability at 10 µM strictly less than 60%. Subject: `Cc1ncc([N+](=O)[O-])n1CCO`
MET

Please indicate whether the reported viability at 10 µM of `CC(C)(C)C(=O)OCOP(=O)(COCCn1cnc2c(N)ncnc21)OCOC(=O)C(C)(C)C` is strictly below 60%.
NOT MET

Report whether reported viability at 10 µM is lower than 60% (strictly) for `Nc1nc2c(ncn2CCC(CO)CO)c(=O)[nH]1`
NOT MET

Strictly below 60% in viability at 10 µM? CC[C@H]1OC(=O)[C@H](C)[C@@H](O[C@H]2C[C@@](C)(OC)[C@@H](O)[C@H](C)O2)[C@H](C)[C@@H](O[C@@H]2O[C@H](C)C[C@H](N(C)C)[C@H]2O)[C@](C)(O)C[C@@H](C)CN(C)[C@H](C)[C@@H](O)[C@]1(C)O [Azithromycin Dihydrate]
MET

Check if viability at 10 µM falls below 60% for `CCOC(=O)n1ccn(C)c1=S` .
NOT MET
